experiment: Urinary clearance was determined in rat at 10 mg/kg intraperitoneal dosage; type: ADME, organism-based; parameters: dose 10 mg/kg, route intraperitoneal; details: urine, ip, read-out: CL_renal (converted)
Experimental endpoint: CL renal (mL/min/kg)
Just the number in mL/min/kg, nothing appended.

In: What does the record list as CL renal for `CN1CCN(c2c(F)cc3c(=O)c(C(=O)O)cn4c3c2SCC4)CC1` ?
Out: 0.75

###

assay: Urinary clearance was determined in rat at 25 mg/kg intraperitoneal dosage; type: ADME, organism-based; parameters: dose 25 mg/kg, route intraperitoneal; details: urine, ip, read-out: CL_renal (converted)
Experimental endpoint: CL renal (mL/min/kg)
Just the number in mL/min/kg, nothing appended.

In: What does the record list as CL renal for CN1CCN(c2c(F)cc3c(=O)c(C(=O)O)cn4c3c2SCC4)CC1 [RUFLOXACIN] ?
Out: 0.79

###

test: Peak plasma concentration at a dose of 50 mg/kg, os route in rat suspended in carboxymethyl cellulose (CMC); assay type: ADME, organism-based; parameters: dose 50 mg/kg; settings: po, read-out: Activity
Experimental endpoint: Cmax (ng/mL)
Just the number in ng/mL, nothing appended.

In: What does the record list as Cmax for CN1CCN(c2c(F)cc3c(=O)c(C(=O)O)cn4c3c2SCC4)CC1 [RUFLOXACIN] ?
Out: 8000

###

assay: Half life period was determined for the compound at 400 mg/kg concentration, oral route in human; format: ADME, organism-based; set-up: dose 400 mg/kg, route oral; details: in vivo
Experimental endpoint: half-life (h)
Just the number in h, nothing appended.

In: What does the record list as half-life for `CN1CCN(c2c(F)cc3c(=O)c(C(=O)O)cn4c3c2SCC4)CC1` ?
Out: 32

###

assay: Peak plasma concentration at a dose of 25 mg/kg, os route in rat suspended in carboxymethyl cellulose (CMC); assay type: ADME, organism-based; set-up: dose 25 mg/kg; conditions: po, read-out: Activity
Experimental endpoint: Cmax
Dear colleague, please send the value followed by its unit.

In: What does the record list as Cmax for `CN1CCN(c2c(F)cc3c(=O)c(C(=O)O)cn4c3c2SCC4)CC1` ?
Out: 6000 ng/mL

###

system: Pseudomonas aeruginosa; experiment: In vitro antibacterial activity against clinical isolates of Pseudomonas aeruginosa 2437 (gram negative) by agar dilution assay.; format: functional
Experimental endpoint: MIC

>>> df
                                   compound  experimental_endpoint  reported_result
0  CCOC(=O)N1CCN(c2c(F)cc3c(=O)c(C(=O)O)cn4c3c2SCC4)CC1                    MIC       > 50 µg/mL
1  O=C(O)c1cn2c3c(c(Cl)c(N4CCNCC4)cc3c1=O)SCC2                    MIC       > 50 µg/mL
2  O=C(O)c1cn2c3c(cc(F)c(N4CCNCC4)c3c1=O)SCC2                    MIC      > 100 µg/mL
3  CN1CCN(c2cc3c(=O)c(C(=O)O)cn4c3c(c2Cl)SCC4)CC1                    MIC       6.25 µg/mL
4  CN1CCN(c2c(F)cc3c(=O)c(C(=O)O)cn4c3c2SCC4)CC1 [RUFLOXACIN]                    MIC       12.5 µg/mL

Would you kindly look at the next entry?
In: What does the record list as MIC for `O=C(O)c1cn2c3c(c(Cl)c(F)cc3c1=O)SCC2` ?
Out: > 25 µg/mL

Cited source for all entries: ChEMBL document CHEMBL1123921
